- SYSTEM TESTED: Regulator of G-protein signaling 16 (Homo sapiens) (UniProt O15492)
- MEASUREMENT NOTES: small molecules altering RGS protein interactions with GNAO1 – biochemical, multiplexed beads, flow cytometry, RGS4/7/8/16/19, primary screen (AID 1504);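 note: fluorescently labeled Galpha-o bound to GDP with aluminium fluoride binding biotinylated RGS beads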
- PROTOCOL CONDITIONS: multiplexed bead flow cytometry, measured here: RGS16 interaction, at 10 µM
Some of the results follow.
EXPERIMENTAL READOUT: RGS16–Galpha-o binding response (%)
The reply should contain only the number, in %.

Query: Any idea what RGS16–Galpha-o binding response was measured for CCOC(=O)c1oc2c(CN3CCN(C)CC3)c(O)ccc2c(=O)c1-c1ccc(Br)cc1 ?
Reply: 142

Query: Next compound up: Nc1ccc(C(=O)OCC(=O)NC2CCS(=O)(=O)C2)cc1[N+](=O)[O-] (stereo not given)
Reply: -10.3

Query: Item: Cc1ccc(Cn2ccc(NC(=O)c3cc(C(C)C)on3)n2)cc1
Reply: 47.2

Query: How about this compound: CCC(=O)Nc1c(S(=O)(=O)c2ccccc2)c2nc3ccccc3nc2n1Cc1ccccc1
Reply: 13.9

Query: How about CC(=O)c1ccc(NC(=S)NC(=O)CC(C)C)cc1 ?
Reply: 21.8

Query: Ok, now C=CCn1c(=NC(=O)c2cccs2)sc2cc(NC(C)=O)ccc21
Reply: 152

Query: Subsequent entry: CCN(CC)S(=O)(=O)c1cccc(-c2n[nH]c(=S)n2/N=C/c2ccc(C(=O)OC)cc2)c1
Reply: 334

Query: Another compound to look at: CCOc1ccccc1NC(=O)c1cc(S(=O)(=O)N2CCC3(CC2)OCCO3)ccc1F
Reply: 4.15

Query: Another compound to check: NC(=O)Cc1ccc2sc(-c3ccccc3)nc2c1
Reply: 23.6

Query: Here is the next compound: COc1ccc(CCC(=O)OCC(=O)Nc2ccc(C)c(S(=O)(=O)N(C)C)c2)cc1
Reply: 69.9

###

- Tested on: anti-desmoglein-3 scFv antibody binding to human DSG3
- MEASUREMENT NOTES: blockers of pathogenic pemphigus antibody–desmoglein-3 binding – biochemical, validation compound set, bead-based, flow cytometry, pilot screen (AID 588368);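 note: signal is the median channel fluorescence of bead-bound GFP antibody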
- PROTOCOL CONDITIONS: Protein G beads, DSG3-Fc, scFv-GFP binding, at 10 µM, stronger effect = lower value
EXPERIMENTAL READOUT: binding (% of control) (%)
Numeric answer only, unit % assumed.

Query: Value lookup for binding (% of control); key = COc1ccc(NC(=S)N2CCN(CCN3C(=O)c4cccc5cccc(c45)C3=O)CC2)cc1
Reply: 105

Query: Param item: CCCCCCCCCC(=O)OCC(O)CO (configuration not stated)
Reply: 96.3

Query: How about CCN1CCN(C(=S)c2ccc(OC)cc2)CC1 ?
Reply: 101

Query: How about this compound: CC(=O)c1c[nH]c2ccc(C)cc2c1=O
Reply: 101

Query: CC(C)(Oc1ccc(CCNC(=O)c2ccc(Cl)cc2)cc1)C(=O)O ?
Reply: 93.5

Query: Next entry: CCCCCCCCNC(C)C(O)c1ccc(SC(C)C)cc1 (configuration not stated)
Reply: 109

Query: Likewise for COc1cc2c(cc1OC)-c1cc(NC3CCCCCC3)nc(=O)n1CC2 ?
Reply: 107

Query: # iterate: CC1=NN(C(=O)c2ccc(Br)cc2)C(O)(c2ccccc2)C1 (configuration not stated)
Reply: 96.8

Query: Next entry: CCc1cc(=O)oc2cc(OCc3nn[nH]n3)ccc12
Reply: 103

Query: Also check N/C(=N\OC(=O)c1cccc(Br)c1)c1ccncc1
Reply: 100

Query: Entry to check: CCOCCn1c(C(C)O)nc2ccccc21 (configuration not stated)
Reply: 95.3

Query: Check O=C(O)c1cc2cc(F)ccc2[nH]1 too.
Reply: 97.2
